Molecular target: Luciferin 4-monooxygenase (Photinus pyralis)
Experiment: qHTS assay to identify small molecule inhibitors of firefly luciferase (AID 1224835); also: nearly all actives have a fitted effect of over 25% in size
Conditions: purified P. pyralis luciferase, luminescence inhibition; series mostly up to 115 µM
Source text: U.S. Tox21 Program National Center for Advancing Translational Sciences [NCATS] NIH Chemical Genomics Center [NCGC] U.S. Environmental Protection Agency [EPA] National Institutes of Environmental Health Sciences [NIEHS] National Toxicology Program [NTP] U.S. Food and Drug Administration [FDA] Tox21 Assay Overview: Firefly (Photinus pyralis) luciferase is one of the most commonly used transcriptional reporters. […]
Inconclusive results are not listed. Calls of active or inactive are those of the source. Calls follow the shape of the dose curve; as a rule, active = well fitted inhibition curve with a large enough effect in the repeat runs; inconclusive = weak or mixed curves; inactive = flat fitted curve, though single readings scatter.
Outcome codes: label 1 for active, label 0 for inactive

molecule=CC1(C)CCC[C@]2(C)[C@H]3CC(=O)O[C@]3(C)CC[C@@H]12 label_class="label 0"
molecule=C=C(C)c1cccc(C(=C)C)c1 label_class="label 0"
molecule=CCN(CCN)c1cccc(C)c1 label_class="label 0"
molecule="CCCCCCOC(=O)C(C)CC (stereo not drawn)" label_class="label 0"
molecule="COC(=O)C1=C(C)NC(C)=C(C(=O)OCCN2CCN(C(c3ccccc3)c3ccccc3)CC2)C1c1cccc([N+](=O)[O-])c1 (stereo not drawn)" label_class="label 0"
molecule=CC1=CCC(=C(C)C)CC1 label_class="label 0"
molecule=CC(=O)OCC=C(C)C label_class="label 0"
molecule=O=C(O)Cc1ccccc1Nc1c(Cl)cccc1Cl label_class="label 0"
molecule=CCC(=O)C(=O)CC label_class="label 0"
molecule=O=C(Oc1ccccc1)Oc1ccccc1 label_class="label 1"
molecule=CCC(COC(=O)CCS)(COC(=O)CCS)COC(=O)CCS label_class="label 0"
molecule=Nc1cc(Cl)c(O)c(Cl)c1 label_class="label 0"
molecule="CCO[C@@H]1O[C@H](C(COCc2ccccc2)OCc2ccccc2)[C@H](OCc2ccccc2)[C@H]1O (stereo partly drawn)" label_class="label 0"
